EXPERIMENTAL_TARGET: T1, HLA class I molecule B08.01
T1 construct: Purified MHC class I complex; also called HLA-B08:01
METHOD_NOTES: pMHC-I dissociation assay with 125I-labeled beta2m light chain at 37 C, scintillation counts; time in hours for half of the complexes to dissociate
Entries annotated with measured Observed MHC Stability
# number only, unit h dropped from output

Sample LHFCRSSIM (also called GATA3 . . ; CSNH) ; Observed MHC Stability observed: 0

Sample IMKPKRDGYM (also called GATA3 . . ; CSNH) ; Observed MHC Stability observed: 0.4

Sample FATLQRSSL (also called GATA3 . . ; CSNH) ; Observed MHC Stability observed: 0

Sample FLKAESKIMF (also called GATA3 . . ; CSNH) ; Observed MHC Stability observed: 0

Sample ESKIMFATL (also called GATA3 . . ; CSNH) ; Observed MHC Stability observed: 1.3

Sample MFATLQRSSL (also called GATA3 . . ; CSNH) ; Observed MHC Stability observed: 0

Sample FLKAESKIM (also called GATA3 . . ; CSNH) ; Observed MHC Stability observed: 1.2
